- Tested on: Acinetobacter baumannii
- experiment.notes: Antibacterial activity against Acinetobacter baumannii USF-1403 at 100 ug/mL
- Type: functional, organism-based
The source made the active and inactive calls. The rule behind the calls is not given here. Where a SMILES comes first, the peptide text is derived from it. Bridges are numbered along the chain shown (N, C = ends). [ ]: non-standard residue; d: D form. The star is where a group is joined. Dodecanoyl(12-guanidino) = N=C(N)NCCCCCCCCCCCC(=O)*; d(aThr) = C[C@@H](O)[C@@H](N)C(=O)O
readout.label: Activity

Some compounds with known Activity results, for comparison:
{"columns": ["compound", "experimental.system", "Activity"],
 "data": [
  ["CC(C)[C@@H]1NC(=O)[C@@H](C(C)C)NC(=O)C(NC(=O)CCCCCCCCCCCNC(=N)N)CNC(=O)[C@@H](C)NC(=O)[C@@H](CC(N)=O)NC(=O)[C@@H]([C@@H](C)O)NC1=O (stereo not given in full)", "Acinetobacter baumannii", "Active"],
  ["CC(C)C[C@@H]1NC(=O)[C@@H](CC(C)C)NC(=O)C(NC(=O)CCCCCCCCCCCNC(=N)N)CNC(=O)[C@@H](CCCNC(=N)N)NC(=O)[C@@H](CC(N)=O)NC(=O)[C@@H](CCCCN)NC1=O (stereo not given in full)", "Acinetobacter baumannii", "Active"],
  ["CC[C@@H](C)[C@H]1NC(=O)[C@H](CC(C)C)NC(=O)[C@@H](CCCCN)NC(=O)C(NC(=O)CCCCCCCCCCCNC(=N)N)CNC(=O)[C@@H](CCCCN)NC(=O)[C@@H](CC(N)=O)NC1=O (stereo not given in full)", "Acinetobacter baumannii", "Active"],
  ["CC(C)[C@@H]1NC(=O)[C@@H](C(C)C)NC(=O)[C@@H](NC(=O)CCCCCCCCCCCNC(=N)N)[C@@H](C)OC(=O)[C@@H](C)NC(=O)[C@@H](CC(N)=O)NC(=O)[C@@H]([C@@H](C)O)NC1=O ({Dodecanoyl(12-guanidino)}-T[dV]V[d(aThr)][dN][dA]; ester 1-C)", "Acinetobacter baumannii", "Active"]
]}

From here, focus on the item given below.
Incoming: What Activity value was documented for this compound, `CN[C@@H](CC(C)C)C(=O)N[C@H]1C(=O)N[C@@H](CC(N)=O)C(=O)N[C@H]2C(=O)N[C@H]3C(=O)N[C@H](C(=O)N[C@@H](C(=O)O)c4cc(O)cc(O)c4-c4cc3ccc4O)[C@H](O)c3ccc(c(Cl)c3)Oc3cc2cc(c3O[C@H]2O[C@@H](CO)[C@H](O)[C@@H](O)[C@@H]2O[C@@H]2C[C@@](C)(N)[C@@H](O)[C@@H](C)O2)Oc2ccc(cc2Cl)[C@H]1O` ?
Outgoing: Active
